test system: E. coli TESEC Alr+ wild-type control; experiment: growth (OD600 after 10 h); higher = more growth (less inhibition); conditions: compound 0.1 mM; raw OD600 reference: median of DMSO wells 0.241, cell-free background 0.041
Where a name gives a salt, the structure may show the parent alone.
Outcome label depends on growth relative to 0.2: at/above gives true, below gives false.

Qu. growth >= 0.2 for O=P1(N(CCCl)CCCl)NCCCO1 (configuration not stated) [Cyclophosphamide] ?
Ans. true

Qu. Is growth for C#C[C@]1(O)CC[C@H]2[C@@H]3CCC4=CC(=O)CCC4=C3C=C[C@@]21CC at or above 0.2?
Ans. false

Qu. Is the recorded value of growth equal to or greater than 0.2 for this compound? COc1ccc(CN2CCNCC2)c(OC)c1OC [Trimetazidine dihydrochloride]
Ans. true

Qu. API: above_or_equal(metric=growth, cutoff=0.2) for item CN1C[C@H](C(=O)N[C@]2(C)O[C@@]3(O)[C@@H]4CCCN4C(=O)[C@H](Cc4ccccc4)N3C2=O)C[C@@H]2c3cccc4[nH]cc(c34)C[C@H]21 [Dihydroergotamine tartrate]
Ans. false

Qu. Please indicate if the recorded growth for CC(Cc1ccc(O)cc1)NCC(O)c1cc(O)cc(O)c1 (configuration not stated) [Fenoterol hydrobromide] meets or exceeds 0.2.
Ans. true
